system-name: UniProtKB P41597
quantity-kind: IC50 (nM)

compound | system-name | IC50 [nM]
O=C(O)C(C1CCN(C(=O)/C=C/c2cc(F)c(F)c(F)c2)CC1)N1CCC(c2cc[nH]c2)CC1 (stereo not drawn) [Cpd 150] | UniProtKB P41597 | 1600

1. COc1ccc(/C=C/C(=O)N2CCC(C(C(=O)O)N3CCC(c4c[nH]c5ccccc45)CC3)CC2)cc1OC (stereo not drawn) [Cpd 63]
2. CS(=O)(=O)Nc1ccc2[nH]cc(C3CCN(C(C(=O)O)C4CCN(C(=O)/C=C/c5cc(F)cc(F)c5)CC4)CC3)c2c1 (stereo not drawn) [Cpd 29]
3. O=C(O)C(C1CCN(C(=O)Nc2ccc(F)c(C(F)(F)F)c2)CC1)N1CCC(c2c[nH]c3ccccc23)CC1 (stereo not drawn) [Cpd 58]
4. CCNC(=O)NCC(C1CCN(C(=O)/C=C/c2cccc(C)c2)CC1)N1CCC(c2c[nH]c3ccccc23)CC1 (stereo not drawn) [Cpd 231]
Order each entry by recorded IC50, climbing from the minimum. Give your ranking as a list of the labels in the requested order.
2, 3, 1, 4

###

system-name: CCR2 (Homo sapiens, UniProt P41597)
Sequence (P41597 1-360 isoform P41597-2): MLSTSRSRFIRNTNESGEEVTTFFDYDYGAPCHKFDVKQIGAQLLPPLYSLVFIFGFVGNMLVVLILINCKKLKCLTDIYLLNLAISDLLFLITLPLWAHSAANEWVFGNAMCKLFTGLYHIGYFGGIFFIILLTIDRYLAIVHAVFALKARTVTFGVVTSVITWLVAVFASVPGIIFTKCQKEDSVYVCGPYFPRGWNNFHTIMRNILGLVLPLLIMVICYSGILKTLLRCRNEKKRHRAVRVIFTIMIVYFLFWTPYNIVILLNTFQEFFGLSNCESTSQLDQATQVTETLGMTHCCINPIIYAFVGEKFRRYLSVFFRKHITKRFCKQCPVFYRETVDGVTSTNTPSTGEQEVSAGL
pIC50: −log10 of the molar value.
quantity-kind: pIC50

Below, 3 compounds whose answers are already recorded.
compound | system-name | measured-number
CN(C)CC(=O)NCC(C1CCN(C(=O)/C=C/c2cc(F)cc(F)c2)CC1)N1CCC(c2c[nH]c3ccccc23)CC1 (stereo not drawn) | CCR2 (Homo sapiens, UniProt P41597) | 5.24
COc1ccc(C2CCN(C(C(=O)O)C3CCN(C(=O)/C=C/c4cc(F)cc(F)c4)CC3)CC2)cc1 (stereo not drawn) | CCR2 (Homo sapiens, UniProt P41597) | 5.74
COC(=O)C(C1CCN(C(=O)/C=C/c2cc(F)c(F)c(F)c2)CC1)N1CCC(c2c[nH]c3c(OC)cccc23)CC1 (stereo not drawn) | CCR2 (Homo sapiens, UniProt P41597) | 5.49

A. O=C(O)C(C1CCN(C(=O)Nc2cccc(F)c2)CC1)N1CCC(c2c[nH]c3ccccc23)CC1 (stereo not drawn)
B. CS(=O)(=O)Nc1ccc2[nH]cc(C3CCN(C(C(=O)O)C4CCN(C(=O)Nc5ccc(Cl)c(Cl)c5)CC4)CC3)c2c1 (stereo not drawn)
C. Cc1cccc(NC(=O)N2CCC(C(C(=O)O)N3CCC(c4c[nH]c5ccccc45)CC3)CC2)c1 (stereo not drawn)
D. CC(=O)Nc1ccc2[nH]cc(C3CCN(C(C(=O)O)C4CCN(C(=O)/C=C/c5cc(F)c(F)c(F)c5)CC4)CC3)c2c1 (stereo not drawn)
Place the items in sequence of falling pIC50. Give the labels in the order specified.
B, D, A, C

I. O=CNCC(C1CCN(C(=O)/C=C/c2cc(F)c(F)c(F)c2)CC1)N1CCC(c2c[nH]c3ccccc23)CC1 (stereo not drawn)
II. O=C(/C=C/c1cccc(C(F)(F)F)c1)N1CCC(C(CO)N2CCC(c3ccncc3)CC2)CC1 (stereo not drawn)
// compare measured pIC50, left I , right II , return larger Answer = label.
I
(I: 6.36, II: 5.80)

1. COc1cccc2[nH]cc(C3CCN(C(C(=O)O)C4CCN(C(=O)/C=C/c5cc(F)cc(F)c5)CC4)CC3)c12 (stereo not drawn)
2. OCC(C1CCN(C(=S)Nc2ccc(Cl)c(Cl)c2)CC1)N1CCC(c2c[nH]c3ccccc23)CC1 (stereo not drawn)
3. O=C(O)C(C1CCN(C(=O)NCc2ccc(Cl)c(Cl)c2)CC1)N1CCC(c2c[nH]c3ccccc23)CC1 (stereo not drawn)
4. Cc1ccc(NC(=S)N2CCC(C(C(=O)O)N3CCC(c4c[nH]c5ccccc45)CC3)CC2)cc1 (stereo not drawn)
5. N=C(NC(=O)c1cccc(F)c1)N1CCC(C(C(=O)O)N2CCC(c3c[nH]c4ccccc34)CC2)CC1 (stereo not drawn)
Thanks in advance: please rank these 5 entries by pIC50, highest to lowest. Please respond by ranking the labels in the order requested.
1, 2, 4, 5, 3

a. COc1ccc2c(C3CCN(C(C(=O)O)C4CCN(C(=O)/C=C/c5cc(F)cc(F)c5)CC4)CC3)c[nH]c2c1 (stereo not drawn)
b. CSc1cccc(NC(=O)N2CCC(C(C(=O)O)N3CCC(c4c[nH]c5ccccc45)CC3)CC2)c1 (stereo not drawn)
c. O=C(O)C(C1CCN(C(=O)/C=C/c2ccsc2)CC1)N1CCC(c2c[nH]c3ccccc23)CC1 (stereo not drawn)
d. O=C(O)C(C1CCN(C(=O)Nc2ccc(Cl)cc2Cl)CC1)N1CCC(c2c[nH]c3ccccc23)CC1 (stereo not drawn)
e. O=C(O)C(C1CCN(C(=O)/C=C/c2ccc(Cl)cc2)CC1)N1CCC(c2c[nH]c3ccccc23)CC1 (stereo not drawn)
Arrange the 5 compounds by rising pIC50, starting with the smallest. // respond by listing labels in the order requested
d, c, b, a, e

Source listed as patent US20060069123A1.
